Target: human CB1 (Homo sapiens)
Sequence (P21554 whole entry): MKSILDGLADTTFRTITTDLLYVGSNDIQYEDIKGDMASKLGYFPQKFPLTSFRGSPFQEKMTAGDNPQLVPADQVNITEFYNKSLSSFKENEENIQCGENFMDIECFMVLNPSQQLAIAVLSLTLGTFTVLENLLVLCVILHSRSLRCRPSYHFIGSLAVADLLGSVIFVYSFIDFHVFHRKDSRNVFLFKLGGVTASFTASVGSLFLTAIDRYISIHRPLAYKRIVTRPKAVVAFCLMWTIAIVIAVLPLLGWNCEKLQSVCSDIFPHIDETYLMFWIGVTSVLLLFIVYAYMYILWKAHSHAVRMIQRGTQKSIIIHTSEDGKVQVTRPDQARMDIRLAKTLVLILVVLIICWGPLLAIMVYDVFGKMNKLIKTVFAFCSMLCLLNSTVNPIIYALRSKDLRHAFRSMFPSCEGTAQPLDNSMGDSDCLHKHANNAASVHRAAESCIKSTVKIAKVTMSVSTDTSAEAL
Experiment: cAMP determination in functional hCB1-HEK stable cells (HTRF)
Method: In-Vitro Assay Method for Determination of cAMP in Functional hCB1—HEK Stable Cells: U.S.A), 400 μg/ml of G418 and lx penstrep. For assay, 0.6-1.0×10^6 hCB1-HEK cells were seeded in T-25 flask and grown to mid-log phase in complete culture medium as mentioned above for 2-3 days. One day prior to assay, cell monolayer was washed once with PBS (pH.7.4) and then serum starved for overnight in DMEM medium containing 0.2% bovine serum albumin (devoid of antibiotics, FBS and penstrep). […]
pEC50: −log10 of the molar value.
READOUT KIND: pEC50

* O=C(c1ccc(Nc2cccc(Cl)c2)c2ccccc12)N1CCOCC1 | < 7.00
* O=C(c1cnc(Nc2cccc(Cl)c2)c2cccc(Cl)c12)N1CCCCC1 | > 7.00
* Cc1c(Cl)cccc1Nc1ccc(C(=O)N2CCOCC2)c2c(C)cccc12 | > 7.00
* Cc1cccc2c(Nc3cccc(Cl)c3)ncc(C(=O)N3CCC(F)(F)CC3)c12 | > 7.00

Provenance of the data: patent US9006442B2
